system: Salmonella Typhimurium TA98; test: Mutagenicity, Ames test; conditions: TA98, ½ MIC
Label Criterion met for high-side Mutagenicity ratio (MR) (at or above 3) and Criterion not met for low-side Mutagenicity ratio (MR) (below it).

- compound: "CCCCCCCCCCCCCCCC(=O)N(CCCN(CCC[N+](C)(C)C)C(=O)CCCCCCCCCCCCCCC)CCC[N+](C)(C)C [2xC16BrG3]"
  class: "Criterion not met"
- compound: "CCCCCCCCCCCC(=O)N(CCCN(CCC[N+](C)(C)C)C(=O)CCCCCCCCCCC)CCC[N+](C)(C)C [2xC12MeCO3G3]"
  class: "Criterion not met"
- compound: "CCCCCCCCCCCCCC(=O)N(CCCN(CCC[N+](C)(C)C)C(=O)CCCCCCCCCCCCC)CCC[N+](C)(C)C"
  class: "Criterion not met"
- compound: "CCCCCCCCCCCCCCCC(=O)N(CCCN(CCC[N+](C)(C)C)C(=O)CCCCCCCCCCCCCCC)CCC[N+](C)(C)C [2xC16LaG3]"
  class: "Criterion not met"
- compound: "CCCCCCCCCCCCCCCC(=O)N(CCCN(CCC[N+](C)(C)C)C(=O)CCCCCCCCCCCCCCC)CCC[N+](C)(C)C [2xC16MeCO3G3]"
  class: "Criterion not met"

Okay, next one:
Task item: Quick check: does CCCCCCCCCCCC(=O)N(CCCN(CCC[N+](C)(C)C)C(=O)CCCCCCCCCCC)CCC[N+](C)(C)C [2xC12BrG3] have Mutagenicity ratio (MR) greater than or equal to 3?
Reply: Criterion met

----------
Recorded TK (Krafft point), one value per entry.
Assay: Krafft point (TK) determination
Assay type: physicochemical
Experimental: Elemental analysis was conducted utilizing Vario EL cube (Elementar, Germany) calibrated on acetanilide. Mass spectra were gain by electrospray ionization mass spectroscopy (ESI–MS) (micrOTOF-Q instrument; Bruker Daltonics, Germany). […] Krafft points were measured according to procedures described in our previous studies Lamch et al.,[82]. […]

- molecule: "CCCCCCCCCCCC(=O)N(CCCN(CCC[N+](C)(C)C)C(=O)CCCCCCCCCCC)CCC[N+](C)(C)C [2xC12MeCO3G3]"
  attribute_measured: "TK (Krafft point)"
  experimental_result: "< 0 °C"
- molecule: "CCCCCCCCCCCCCCCC(=O)N(CCCN(CCC[N+](C)(C)C)C(=O)CCCCCCCCCCCCCCC)CCC[N+](C)(C)C [2xC16MeCO3G3]"
  attribute_measured: "TK (Krafft point)"
  experimental_result: "~ 5 °C"
- molecule: "CCCCCCCCCCCCCCCC(=O)N(CCCN(CCC[N+](C)(C)C)C(=O)CCCCCCCCCCCCCCC)CCC[N+](C)(C)C [2xC16LaG3]"
  attribute_measured: "TK (Krafft point)"
  experimental_result: "< 0 °C"

TK (Krafft point) recorded for this molecule, CCCCCCCCCCCCCC(=O)N(CCCN(CCC[N+](C)(C)C)C(=O)CCCCCCCCCCCCC)CCC[N+](C)(C)C , is < 0 °C

TK (Krafft point) recorded for this molecule, CCCCCCCCCCCCCCCC(=O)N(CCCN(CCC[N+](C)(C)C)C(=O)CCCCCCCCCCCCCCC)CCC[N+](C)(C)C [2xC16BrG3] , is ~ 5 °C

TK (Krafft point) recorded for this molecule, CCCCCCCCCCCC(=O)N(CCCN(CCC[N+](C)(C)C)C(=O)CCCCCCCCCCC)CCC[N+](C)(C)C [2xC12BrG3] , is < 0 °C

----------
system: Salmonella Typhimurium TA100; conditions: TA100, ½ MIC; ± SD
attribute_measured: Number of colonies
Just the number, please, no unit after it.

Here are 3 compounds together with their reported answers.
- compound: "CCCCCCCCCCCCCCCC(=O)N(CCCN(CCC[N+](C)(C)C)C(=O)CCCCCCCCCCCCCCC)CCC[N+](C)(C)C [2xC16LaG3]"
  Number of colonies: 213.0
- compound: "CCCCCCCCCCCCCC(=O)N(CCCN(CCC[N+](C)(C)C)C(=O)CCCCCCCCCCCCC)CCC[N+](C)(C)C [2xC14BrG3]"
  Number of colonies: 197.0
- compound: "CCCCCCCCCCCC(=O)N(CCCN(CCC[N+](C)(C)C)C(=O)CCCCCCCCCCC)CCC[N+](C)(C)C [2xC12BrG3]"
  Number of colonies: 308.3

Number of colonies recorded for this compound, CCCCCCCCCCCC(=O)N(CCCN(CCC[N+](C)(C)C)C(=O)CCCCCCCCCCC)CCC[N+](C)(C)C [2xC12MeCO3G3] , is 438.0

Number of colonies recorded for this compound, CCCCCCCCCCCCCCCC(=O)N(CCCN(CCC[N+](C)(C)C)C(=O)CCCCCCCCCCCCCCC)CCC[N+](C)(C)C [2xC16MeCO3G3] , is 490.5
